# ASSAY: viability loss with induced miR-34 in A549 – imaging, A549 dox-inducible miR-34, nuclei and caspase counts, primary screen (AID 1347080); also: test concentration not given here
# EXPERIMENTAL CONTEXT: A549 miR-34 inducible, Hoechst nuclei count, 48 h; measured here: total cells without miR-34 induction
EXPERIMENTAL ENDPOINT: cell count

compound=O=C(O)COc1cccc(-c2ocnc2-c2nc(-c3ccccc3)c(-c3ccccc3)o2)c1 recorded_result=8890
compound=CC(C)c1cc(-c2n[nH]c(=O)n2-c2ccc3c(ccn3C)c2)c(O)cc1O recorded_result=1400
compound=CCCCCC/C=C\CCCCCCCC(=O)OCC recorded_result=6150
compound=COc1ccc(-n2nc(C(N)=O)c3c2C(=O)N(c2ccc(N4CCCCC4=O)cc2)CC3)cc1 recorded_result=8900
compound=Nc1nc(Nc2ccccc2)nc2c1ncn2[C@@H]1O[C@H](CO)[C@@H](O)[C@H]1O recorded_result=10100
compound=CCCCCCCCCCCCCCCCOC[C@H](COP(=O)([O-])OCC[N+](C)(C)C)OC(=O)CCC recorded_result=5890
compound=CCCCC[C@@H](O)/C=C/[C@H]1[C@H](O)CC(=O)[C@@H]1C/C=C\CCCC(=O)O recorded_result=6180
compound=[C-]#[N+]c1cc(-c2ccncc2)c(C)[nH]c1=O recorded_result=6450
compound=Cc1cc(C(=O)NOCCO)c(Nc2ccc(I)cc2F)n(C)c1=O recorded_result=3450
compound=CN(C)c1ccc(C(=O)NCCCCCC(=O)NO)cc1 recorded_result=5600
compound=CCCCC[C@H](O)/C=C/[C@H]1[C@@H](O)CC(=O)[C@@H]1CCCCCCC(=O)O recorded_result=5510
compound=C/C=C/C(=O)O[C@H](COCCCCCCCCCCCCCCCC)COP(=O)([O-])OCC[N+](C)(C)C recorded_result=5710
compound=CCOC(=O)[C@H]1O[C@@H]1C(=O)N[C@@H](CC(C)C)C(=O)NCCC(C)C recorded_result=4800
compound=O=P(O)(O)O[C@H]1[C@@H](O)[C@H](O)[C@@H](OP(=O)(O)O)[C@H](OP(=O)(O)O)[C@H]1O recorded_result=6630
compound=NC1=NC(=O)/C(=C/c2ccc(O)cc2)S1 recorded_result=5780
compound=Nc1nc2c([nH]c(=O)n2[C@H]2C[C@H](O)[C@@H](CO)O2)c(=O)[nH]1 recorded_result=5800
compound=C[C@@H](O)CCC[C@@H](O)/C=C/[C@@H]1[C@@H](CCCCCCC(=O)O)[C@@H](O)C[C@H]1O recorded_result=5940
compound=NCCCNCCCCN(CCCN)[N+]([O-])=NO recorded_result=5880
compound=CC(C)CC(=O)Nc1n[nH]c2c1CN(C(=O)C1CCN(C)CC1)C2(C)C recorded_result=1210
compound=CCc1c(OCCCCCC(C)(C)c2nn[nH]n2)cc(O)cc1C(C)=O recorded_result=5840
compound=CCCNC(=O)Nc1ccc(Oc2ncnc3cc(OC)c(OC)cc23)cc1Cl recorded_result=8010
compound=CCCCCCCCCCCCCCC(=O)N[C@H]1CCOC1=O recorded_result=5660
compound="O=C(O)C(O)Cc1ccc(O)c(O)c1 (stereo not given)" recorded_result=10300
compound=CCCCC[C@H](O)/C=C/[C@H]1C(=O)C[C@H](O)[C@@H]1C/C=C/CCCC(=O)O recorded_result=6130
compound="CCc1cc(C2NNC(C)C2c2ccc3c(c2)OCCO3)c(O)cc1O (stereo not given)" recorded_result=4490
compound=CCCCC[C@H](O)/C=C/[C@H]1[C@H](O)CC(=O)[C@@H]1C/C=C\CCCC(=O)NC(CO)CO recorded_result=5870
compound=N[C@H]1CCN(O)C1=O recorded_result=8300
compound=COc1cccc(CCc2ccccc2OCC[C@@H]2C[C@@H](O)CN2C)c1 recorded_result=7050
compound=CCCCC/C=C/C=C1/C=CC(=O)[C@@H]1C/C=C\CCCC(=O)O recorded_result=5960
compound=O=c1cc(N2CCOCC2)oc2c(-c3cccc4c3sc3ccccc34)cccc12 recorded_result=6670
compound=CC[C@H](CO)Nc1nc(Nc2cccc(-c3ccccn3)c2)c2ncn(C(C)C)c2n1 recorded_result=1340
compound="CC(=O)O[C@@]12CO[C@@H]1C[C@H](O)[C@@]1(C)C(=O)[C@H](OC(=O)O)C3=C(C)[C@@H](OC(=O)[C@H](O)[C@@H](NC(=O)c4ccccc4)c4ccccc4)C[C@@](O)([C@@H](OC(=O)c4ccccc4)C12)C3(C)C (stereo not given in full)" recorded_result=1180
compound=COc1cccc(C=NC=Nc2cccc(OC)c2)c1 recorded_result=9420
compound=CCCc1oc(CCC(=O)O)c(C(=O)O)c1C recorded_result=5840
compound="Cc1nc(NC(=O)N2CCCC2C(N)=O)sc1-c1ccnc(C(C)(C)C(F)(F)F)c1 (stereo not given)" recorded_result=6170
compound=Cn1cnc2c(F)c(Nc3ccc(Br)cc3F)c(C(=O)NOCCO)cc21 recorded_result=4540
compound=CC(C)[C@H](CO)Nc1nc(Nc2cc(N)cc(Cl)c2)c2ncn(C(C)C)c2n1 recorded_result=1160
compound=CCCCC[C@H](O)/C=C/[C@@H]1[C@@H](C/C=C\CCCC(=O)NCCO)[C@@H](O)C[C@@H]1O recorded_result=6330
compound=CC(C)CN(C[C@@H](O)[C@H](Cc1ccccc1)NC(=O)O[C@H]1CCOC1)S(=O)(=O)c1ccc(N)cc1 recorded_result=10200
compound=CS(=O)(=O)NC(=O)CCCCCCCCCC=C(Br)Br recorded_result=5700
